Test system: S. aureus
Assay: Minimum inhibitory concentrations (MICs) for S. aureus of exemplary compounds (Table 2)
Assay type: cell-based
Settings: Staphylococcus aureus, minimum inhibitory concentrations for S. aureus; read-out: MICs
From the text: Exemplary compounds in accordance with the invention are listed in Table 2 with their minimum inhibitory concentrations (MICs) (μg/mL) for S. aureus: Furthermore, the antibiotic compounds can be assayed for anti-proliferative or anti-infective properties on a cellular level. For example, where the target organism is a microorganism, the activity of compounds of interest can be assayed by growing the microorganisms of interest in media either containing or lacking the compound. […]
Reported MIC values for the following compounds.
Write the value in µg/mL as a bare number.

// below: answered compounds
[[record]]
compound = "CC(=O)NC[C@H]1CN(c2ccc(-c3ccc(CNCc4noc(C)n4)cc3)c(F)c2)C(=O)O1"
assay_endpoint = "MIC"
unit_text = "µg/mL"
numeric_readout = 2

[[record]]
compound = "CC(=O)NC[C@H]1CN(c2ccc(-c3ccc(CNCCC4C=Nc5ccc(C)cc54)cc3)c(F)c2)C(=O)O1 (stereo partly drawn)"
assay_endpoint = "MIC"
unit_text = "µg/mL"
numeric_readout = 2


Enquiry: May I ask what MIC has been recorded for CC(=O)NC[C@H]1CN(c2ccc(-c3ccc(CN[C@@H](Cc4c[nH]c5ccccc45)C(N)=O)cc3)c(F)c2)C(=O)O1 ?
Return: 2

Data origin, for the record: patent US10471046B2
